Consider the following molecules; for each one, report its inhibition.
Target: 3-keto-steroid reductase/17-beta-hydroxysteroid dehydrogenase 7 (Homo sapiens) (UniProt P56937)
Sequence (whole entry): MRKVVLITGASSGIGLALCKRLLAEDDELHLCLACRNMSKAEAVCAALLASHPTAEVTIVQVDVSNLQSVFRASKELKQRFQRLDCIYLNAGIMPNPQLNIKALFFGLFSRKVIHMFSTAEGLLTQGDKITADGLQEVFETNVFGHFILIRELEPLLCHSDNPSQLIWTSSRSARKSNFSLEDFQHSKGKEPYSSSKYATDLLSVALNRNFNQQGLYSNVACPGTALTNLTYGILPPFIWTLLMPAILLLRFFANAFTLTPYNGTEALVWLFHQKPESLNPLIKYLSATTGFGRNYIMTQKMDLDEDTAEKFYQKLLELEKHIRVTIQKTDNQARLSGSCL
Details: HEK293, at 0.3 µM
Description: Inhibition of human 17beta-HSD7 expressed in HEK293 cells assessed as inhibition of reduction of [14C]estrone into [14C]estradiol at 0.3 uM after 7 hrs
Return type: number; implicit unit %.

For the molecule `CCCCCCCCCCN(C(=O)c1ccc(I)cc1)[C@H]1CC[C@H]2[C@@H]3CC[C@H]4N(C)C(=O)CC[C@]4(C)[C@H]3CC[C@]12C` , report inhibition. 39

For the molecule `CCCCCNC(=O)[C@H]1CC[C@H]2[C@@H]3CC[C@H]4N(C)C(=O)CC[C@]4(C)[C@H]3CC[C@]12C` , report inhibition. 52.7

For the molecule `CCCCCCCN(C(=O)c1ccc(Br)cc1)[C@H]1CC[C@H]2[C@@H]3CC[C@H]4N(C)C(=O)CC[C@]4(C)[C@H]3CC[C@]12C` , report inhibition. 68

For the molecule CCCC1CC[C@@]2(CC[C@H]3[C@@H]4CCc5cc(O)ccc5[C@H]4CC[C@@]32C)OC1=O (stereo not given in full) , report inhibition. 15.8

For the molecule `CC1(C)CC[C@@]2(CC[C@H]3[C@@H]4CCc5cc(OS(=O)(=O)c6ccccc6)ccc5[C@H]4CC[C@@]32C)OC1=O` , report inhibition. 11.7

For the molecule `CN1C(=O)CC[C@]2(C)[C@H]3CC[C@@]4(C)[C@@H](CC[C@@]4(O)C#CC(C)(C)I)[C@@H]3CC[C@@H]12` , report inhibition. 20.2

For the molecule `CCCCCCCN(C(=O)C1CCCCC1)[C@H]1CC[C@H]2[C@@H]3CC[C@H]4N(C)C(=O)CC[C@]4(C)[C@H]3CC[C@]12C` , report inhibition. 0

For the molecule `CN1C(=O)CC[C@]2(C)[C@H]3CC[C@]4(C)[C@@H](Nc5ccc([N+](=O)[O-])cc5)CC[C@H]4[C@@H]3CC[C@@H]12` , report inhibition. 40.9

For the molecule `CN1C(=O)CC[C@]2(C)[C@H]3CC[C@]4(C)[C@@H](N(C(=O)c5ccccc5)c5ccccc5)CC[C@H]4[C@@H]3CC[C@@H]12` , report inhibition. 31.9

For the molecule `C[C@]12CC[C@H](O)CC1=CC[C@@H]1[C@@H]2CC[C@]2(C)C(=O)CC[C@@H]12` , report inhibition. 5.7

For the molecule `COc1cc2c(cc1S(N)(=O)=O)CC[C@@H]1[C@@H]2CC[C@]2(C)C(=O)CC[C@@H]12` , report inhibition. 6.4

For the molecule `C[C@]12CCC(=O)C[C@@H]1CC[C@@H]1[C@@H]2CC[C@@]2(C)[C@H]1CC[C@@]21CCCC(=O)O1` , report inhibition. 18.6

For the molecule `CCCCCCN(C=O)[C@H]1CC[C@H]2[C@@H]3CC[C@H]4N(C)C(=O)CC[C@]4(C)[C@H]3CC[C@]12C` , report inhibition. 94.1

For the molecule `O=c1cc(-c2ccccc2)oc2cc(O)cc(O)c12` , report inhibition. 6.8

For the molecule `CCCCCCCN(C(=O)c1ccc(CCl)cc1)[C@H]1CC[C@H]2[C@@H]3CC[C@H]4N(C)C(=O)CC[C@]4(C)[C@H]3CC[C@]12C` , report inhibition. 50
